Target: TrkA kinase (Homo sapiens, UniProt P04629)
Sequence (P04629 33-796): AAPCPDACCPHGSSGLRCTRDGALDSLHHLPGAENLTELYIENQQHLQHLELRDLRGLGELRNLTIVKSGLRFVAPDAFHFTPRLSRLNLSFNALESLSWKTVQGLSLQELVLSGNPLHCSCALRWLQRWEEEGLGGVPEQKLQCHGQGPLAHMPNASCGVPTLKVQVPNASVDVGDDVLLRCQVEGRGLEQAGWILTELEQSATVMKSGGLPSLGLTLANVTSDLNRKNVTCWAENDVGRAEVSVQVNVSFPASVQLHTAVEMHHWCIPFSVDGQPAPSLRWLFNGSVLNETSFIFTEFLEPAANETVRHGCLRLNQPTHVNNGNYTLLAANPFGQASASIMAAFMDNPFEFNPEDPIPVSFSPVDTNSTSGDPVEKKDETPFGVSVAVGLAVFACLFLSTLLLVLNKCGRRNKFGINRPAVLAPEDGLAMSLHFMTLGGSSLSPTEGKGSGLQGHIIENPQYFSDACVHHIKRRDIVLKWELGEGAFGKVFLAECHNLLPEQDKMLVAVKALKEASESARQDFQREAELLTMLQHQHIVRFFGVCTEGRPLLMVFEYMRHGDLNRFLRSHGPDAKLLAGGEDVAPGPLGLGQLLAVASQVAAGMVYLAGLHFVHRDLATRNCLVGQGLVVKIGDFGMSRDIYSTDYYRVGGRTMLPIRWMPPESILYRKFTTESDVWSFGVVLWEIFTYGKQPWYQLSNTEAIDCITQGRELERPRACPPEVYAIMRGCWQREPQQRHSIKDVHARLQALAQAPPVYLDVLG
Experiment: TrkA kinase assay (mobility shift assay)
Format: biochemical
Conditions: numeric values; read-out: Trk A Kinase IC50
Method: Example 201 TrkA Kinase Assay Mobility shift assay was used to determine the inhibitory activity of compounds against TrkA kinase. Assay procedures are as follows: 1× Kinase base buffer (50 mM HEPES, pH 7.5; 0.0015% Brij-35) Stop buffer (100 mM HEPES, pH 7.5; 0.015% Brij-35; 0.2% Coating Reagent #3; 50 mM EDTA) 1) Dilute the compound to 50× of the final desired highest inhibitor concentration in reaction by 100% DMSO. Transfer 100 μl of this compound dilution to a well in a 96-well plate. […]
// IC50 lookup, one value per entry
assay.readout: IC50 (nM)

compound="Fc1ccc(F)c([C@H]2CCCN2c2ccn3ncc(-c4nc5cc(C(F)(F)F)ncc5[nH]4)c3n2)c1 [Compound 72]" recorded_measurement=1.4
compound="O=C(O)c1cc2nc(-c3cnn4ccc(N5CCC[C@@H]5c5cc(F)ccc5F)nc34)[nH]c2cc1F [Compound 141]" recorded_measurement=0.3
compound="Fc1ccc(F)c([C@H]2CCCN2c2ccn3ncc(-c4nc5cc(F)cc(F)c5o4)c3n2)c1 [Compound 111]" recorded_measurement=5.3
compound="Fc1ccc(F)c([C@H]2CCCN2c2ccn3ncc(-c4nc5ncc(C(F)(F)F)cc5[nH]4)c3n2)c1 [Compound 110]" recorded_measurement=1.9
compound="Fc1ccc(F)c([C@H]2CCCN2c2ccn3ncc(-c4nnc(-c5ccc6nc[nH]c6c5)[nH]4)c3n2)c1 [Compound 57]" recorded_measurement=0.6

###

biological target: Ba/F3-TPM3-NTRK1 (Homo sapiens); construct: the other entry of the earlier key: TPM3 (P06753, Tropomyosin alpha-3 chain); assay: Ba/F3-TPM3-NTRK1 cells proliferation assay; details: 72 h, CellTiter Glo
Sequence (P04629 510-796 limits assumed): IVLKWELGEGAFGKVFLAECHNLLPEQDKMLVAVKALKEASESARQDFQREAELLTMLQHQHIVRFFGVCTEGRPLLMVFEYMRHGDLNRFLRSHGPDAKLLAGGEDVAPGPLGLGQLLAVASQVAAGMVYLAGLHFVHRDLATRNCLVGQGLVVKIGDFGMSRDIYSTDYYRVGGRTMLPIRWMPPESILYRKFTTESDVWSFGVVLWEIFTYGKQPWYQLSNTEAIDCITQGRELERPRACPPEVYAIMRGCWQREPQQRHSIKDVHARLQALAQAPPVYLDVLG
assay.readout: IC50 (nM)

compound="Fc1ccc(F)c([C@H]2CCCN2c2ccn3ncc(-c4nnc(-c5ccc(C(F)(F)F)nc5)[nH]4)c3n2)c1 [Compound 14]" recorded_measurement=12.5
compound="CCOC(=O)c1nnc(-c2cnn3ccc(N4CCC[C@@H]4c4cc(F)ccc4F)nc23)[nH]1 [Compound 16]" recorded_measurement=9.18
compound="N#Cc1cc2nc(-c3cnn4ccc(N5CCC[C@@H]5c5cc(F)ccc5F)nc34)[nH]c2cc1OC(F)F [Compound 156]" recorded_measurement=3.92
compound="COCCOc1cc2nc(-c3cnn4ccc(N5CCC[C@@H]5c5cc(F)ccc5F)nc34)[nH]c2cc1OCCOC [Compound 101]" recorded_measurement=0.28
compound="Oc1ccc(-c2nnc(-c3cnn4ccc(N5CCC[C@@H]5c5cc(F)ccc5F)nc34)[nH]2)cc1 [Compound 9]" recorded_measurement=2.05
compound="COC(=O)c1cc2nc(-c3cnn4ccc(N5CCC[C@@H]5c5cc(F)ccc5F)nc34)[nH]c2cc1OC [Compound 155]" recorded_measurement=1.2
compound="COC(=O)[C@@H]1CCCN1c1cc2[nH]c(-c3cnn4ccc(N5CCC[C@@H]5c5cc(F)ccc5F)nc34)nc2cc1C#N [Compound 166]" recorded_measurement=4.67

###

// pIC50 lookup, one value per entry
Target: TrkA kinase (Homo sapiens)
Assay: TrkA kinase assay (mobility shift assay)
Assay type: biochemical
Conditions: class symbols; read-out: Trk A Kinase IC50
Protocol: Example 201 TrkA Kinase Assay Mobility shift assay was used to determine the inhibitory activity of compounds against TrkA kinase. Assay procedures are as follows: 1× Kinase base buffer (50 mM HEPES, pH 7.5; 0.0015% Brij-35) Stop buffer (100 mM HEPES, pH 7.5; 0.015% Brij-35; 0.2% Coating Reagent #3; 50 mM EDTA) 1) Dilute the compound to 50× of the final desired highest inhibitor concentration in reaction by 100% DMSO. Transfer 100 μl of this compound dilution to a well in a 96-well plate. […]
pIC50: −log10 of the molar value.
assay.readout: pIC50

compound="Cc1ccc2nc(-c3cnn4ccc(N5CCC[C@@H]5c5cc(F)ccc5F)nc34)[nH]c2n1 [Compound 106]" assay_readout=pIC50 recorded_measurement="≥ 8.00"
compound="Fc1ccc(F)c([C@H]2CCCN2c2ccn3ncc(-c4nnc(C5CCOC5)[nH]4)c3n2)c1 (stereo partly drawn) [Compound 3]" assay_readout=pIC50 recorded_measurement="7.30 to 8.00"
compound="Fc1ccc(F)c([C@H]2CCCN2c2ccn3ncc(-c4nc5cc(F)c(C(F)(F)F)cc5[nH]4)c3n2)c1 [Compound 139]" assay_readout=pIC50 recorded_measurement="< 7.30"
compound="COc1cc2nc(-c3cnn4ccc(N5CCC[C@@H]5c5cc(F)ccc5F)nc34)cn2cc1OC [Compound 199]" assay_readout=pIC50 recorded_measurement="7.30 to 8.00"
compound="OC1CCc2nc(-c3cnn4ccc(N5CCC[C@@H]5c5cc(F)ccc5F)nc34)nn2C1 (stereo partly drawn) [Compound 132]" assay_readout=pIC50 recorded_measurement="7.30 to 8.00"
compound="COC(=O)c1c(F)ccc2nc(-c3cnn4ccc(N5CCC[C@@H]5c5cc(F)ccc5F)nc34)[nH]c12 [Compound 158]" assay_readout=pIC50 recorded_measurement="≥ 8.00"
compound="C[C@H](N)c1nnc(-c2cnn3ccc(N4CCC[C@@H]4c4cc(F)ccc4F)nc23)[nH]1 [Compound 11]" assay_readout=pIC50 recorded_measurement="≥ 8.00"
compound="CS(=O)(=O)c1ccc2nc(-c3cnn4ccc(N5CCC[C@@H]5c5cc(F)ccc5F)nc34)[nH]c2c1 [Compound 170]" assay_readout=pIC50 recorded_measurement="≥ 8.00"
compound="COC(=O)c1cc2[nH]c(-c3cnn4ccc(N5CCC[C@@H]5c5cc(F)ccc5F)nc34)nc2cc1C#N [Compound 152]" assay_readout=pIC50 recorded_measurement="≥ 8.00"
compound="NC(=O)N1CCc2nc(-c3cnn4ccc(N5CCC[C@@H]5c5cc(F)ccc5F)nc34)sc2C1 [Compound 191]" assay_readout=pIC50 recorded_measurement="7.30 to 8.00"
compound="COc1cc2nc(-c3cnn4ccc(N5CCC[C@@H]5c5cc(F)ccc5F)nc34)[nH]c2cc1C(=O)NO [Compound 89]" assay_readout=pIC50 recorded_measurement="7.30 to 8.00"
compound="Fc1ccc(F)c([C@H]2CCCN2c2ccn3ncc(-c4nc5c([nH]4)COCC5)c3n2)c1 [Compound 188]" assay_readout=pIC50 recorded_measurement="≥ 8.00"
compound="Cn1c(-c2cnn3ccc(N4CCC[C@@H]4c4cc(F)ccc4F)nc23)nc2cc3c(cc21)OCCO3 [Compound 83]" assay_readout=pIC50 recorded_measurement="< 7.30"
compound="COc1cc2nc(-c3c(N)nn4ccc(N5CCC[C@@H]5c5cc(F)ccc5F)nc34)[nH]c2cc1OC [Compound 193]" assay_readout=pIC50 recorded_measurement="≥ 8.00"
compound="OC1CCNC(c2nnc(-c3cnn4ccc(N5CCC[C@@H]5c5cc(F)ccc5F)nc34)[nH]2)C1 (stereo partly drawn) [Compound 35]" assay_readout=pIC50 recorded_measurement="7.30 to 8.00"
